These entries and their values trace back to patent US20260042731A1.

# Test system: glyphosate resistant Conyza canadensis (L.) (ERICA), horseweed
# EXPERIMENTAL_DETAILS: Postemergence herbicide evaluation, growth of Conyza canadensis (ERICA)
# Type: in vivo
# MEASUREMENT_CONDITIONS: Erigeron canadensis, post-emergence, 504 h, 560 g ae/ha, 21 DAA, percent reduction in plant size vs untreated control; read-out: Ave. ERICA
pest or weed control at 560 g/ha values by entry
RECORDED_ENDPOINT: pest or weed control at 560 g/ha (%)

structure_as_smiles=O=C(COc1ccc(Cl)cc1Cl)Oc1cccnc1 recorded_endpoint="pest or weed control at 560 g/ha" unit_of_measurement=% measured=100
structure_as_smiles=C/C(=N\OC(=O)COc1ccc(Cl)cc1Cl)C(=O)c1ccccc1 recorded_endpoint="pest or weed control at 560 g/ha" unit_of_measurement=% measured=99.5
structure_as_smiles=O=C(COc1ccc(Cl)cc1Cl)NOCc1c(F)cccc1Cl recorded_endpoint="pest or weed control at 560 g/ha" unit_of_measurement=% measured=100
structure_as_smiles=O=C(COc1cc(Cl)cc(Cl)c1)OCCCOC(=O)COc1ccc(Cl)cc1Cl recorded_endpoint="pest or weed control at 560 g/ha" unit_of_measurement=% measured=98.5
structure_as_smiles=Cc1nc2ccccc2n1C(=O)COc1ccc(Cl)cc1Cl recorded_endpoint="pest or weed control at 560 g/ha" unit_of_measurement=% measured=100
structure_as_smiles=COc1ncc(OC(=O)COc2ccc(Cl)cc2Cl)cn1 recorded_endpoint="pest or weed control at 560 g/ha" unit_of_measurement=% measured=100
structure_as_smiles=CONC(=O)COc1ccc(Cl)cc1Cl recorded_endpoint="pest or weed control at 560 g/ha" unit_of_measurement=% measured=99.5
structure_as_smiles=O=C(COc1ccc(Cl)cc1Cl)Nc1ccccn1 recorded_endpoint="pest or weed control at 560 g/ha" unit_of_measurement=% measured=98.5
structure_as_smiles=O=C(COc1ccc(Cl)cc1Cl)Oc1ccccn1 recorded_endpoint="pest or weed control at 560 g/ha" unit_of_measurement=% measured=100
structure_as_smiles=O=C(COc1ccc(Cl)cc1Cl)Nc1ccnc(Cl)c1 recorded_endpoint="pest or weed control at 560 g/ha" unit_of_measurement=% measured=99

* * *

# System: Chenopodium album (CHEAL), common lambsquarters
# EXPERIMENTAL_DETAILS: Postemergence herbicide evaluation, growth of Chenopodium album (CHEAL)
# Format: in vivo
# MEASUREMENT_CONDITIONS: Chenopodium album, post-emergence, 336 h, 280 g ae/ha, 14 DAA; read-out: Ave. CHEAL, percent reduction in plant size relative to the untreated control
Here, each record is paired with measured pest or weed control at 280 g/ha data.
RECORDED_ENDPOINT: pest or weed control at 280 g/ha

compound=O=C(COc1ccc(Cl)cc1Cl)O/N=C/c1ccccc1 recorded_endpoint="pest or weed control at 280 g/ha" measured=70%
compound=N/C(=N\OC(=O)COc1ccc(Cl)cc1Cl)c1ccccc1 recorded_endpoint="pest or weed control at 280 g/ha" measured=83%
compound="O=C(COc1ccc(Cl)cc1Cl)Oc1cccnn1 [Compound E2]" recorded_endpoint="pest or weed control at 280 g/ha" measured=63%
compound=CC(C)CONC(=O)COc1ccc(Cl)cc1Cl recorded_endpoint="pest or weed control at 280 g/ha" measured=91.5%
compound=C/C(=N\OC(=O)COc1ccc(Cl)cc1Cl)c1ccccc1Cl recorded_endpoint="pest or weed control at 280 g/ha" measured=91.5%
compound=O=C(COc1ccc(Cl)cc1Cl)Nc1nccs1 recorded_endpoint="pest or weed control at 280 g/ha" measured=90%
compound=O=C(COc1ccc(Cl)cc1Cl)Nc1cc[nH]n1 recorded_endpoint="pest or weed control at 280 g/ha" measured=95%
compound=Cc1nccc(NC(=O)COc2ccc(Cl)cc2Cl)c1C recorded_endpoint="pest or weed control at 280 g/ha" measured=85%
compound=O=C(COc1ccc(Cl)cc1Cl)Oc1cncnc1 recorded_endpoint="pest or weed control at 280 g/ha" measured=90%
compound=O=C(COc1ccc(Cl)cc1Cl)O/N=C1\CCCc2ccccc21 recorded_endpoint="pest or weed control at 280 g/ha" measured=65%
compound=O=C(COc1ccc(Cl)cc1Cl)O/N=C/c1ccccn1 recorded_endpoint="pest or weed control at 280 g/ha" measured=97.5%
compound=O=C(COc1ccc(Cl)cc1Cl)Nc1c(Cl)c(F)nc(F)c1Cl recorded_endpoint="pest or weed control at 280 g/ha" measured=0%
compound=COc1ncc(OC(=O)COc2ccc(Cl)cc2Cl)cn1 recorded_endpoint="pest or weed control at 280 g/ha" measured=90%
compound=C/C(=N\OC(=O)COc1ccc(Cl)cc1Cl)c1ccccc1 recorded_endpoint="pest or weed control at 280 g/ha" measured=78%
compound=CC(C)ONC(=O)COc1ccc(Cl)cc1Cl recorded_endpoint="pest or weed control at 280 g/ha" measured=96.5%
compound=C/C(=N\OC(=O)COc1ccc(Cl)cc1Cl)c1ccncc1 recorded_endpoint="pest or weed control at 280 g/ha" measured=98%
compound=O=C(COc1ccc(Cl)cc1Cl)O/N=C/c1ccncc1 recorded_endpoint="pest or weed control at 280 g/ha" measured=94%
compound=N/C(=N\OC(=O)COc1ccc(Cl)cc1Cl)c1cccnc1 recorded_endpoint="pest or weed control at 280 g/ha" measured=63%
compound="O=C(COc1ccc(Cl)cc1Cl)Nc1ccon1 [Compound D2]" recorded_endpoint="pest or weed control at 280 g/ha" measured=73%
compound=C[N+](C)(C)CCOC(=O)COc1ccc(Cl)cc1Cl.[Cl-] recorded_endpoint="pest or weed control at 280 g/ha" measured=78%
compound=C/C(=N\OC(=O)COc1ccc(Cl)cc1Cl)c1cccnc1 recorded_endpoint="pest or weed control at 280 g/ha" measured=97.5%
compound=O=C(COc1ccc(Cl)cc1Cl)Oc1ncc(Cl)cn1 recorded_endpoint="pest or weed control at 280 g/ha" measured=95%
compound=O=C(COc1ccc(Cl)cc1Cl)O/N=C/c1cccnc1 recorded_endpoint="pest or weed control at 280 g/ha" measured=96.5%

* * *

# key: entry, value: pest or weed control at 280 g/ha
# Tested on: Ambrosia artemisiifolia (AMBEL), common ragweed
# EXPERIMENTAL_DETAILS: Postemergence herbicide evaluation, growth of Ambrosia artemisiifolia (AMBEL)
# Assay type: in vivo
# MEASUREMENT_CONDITIONS: Ambrosia artemisiifolia, post-emergence, 168 h, 280 g ae/ha, 7 DAA, percent reduction in plant size relative to untreated control; read-out: AVE. AMBEL
RECORDED_ENDPOINT: pest or weed control at 280 g/ha

structure_as_smiles=CCO/C(CC)=N\OC(=O)COc1ccc(Cl)cc1Cl recorded_endpoint="pest or weed control at 280 g/ha" measured=73%
structure_as_smiles=O=C(COc1ccc(Cl)cc1Cl)NNC(=O)c1ccccc1 recorded_endpoint="pest or weed control at 280 g/ha" measured=73%
structure_as_smiles=C/C(N)=N/OC(=O)COc1ccc(Cl)cc1Cl recorded_endpoint="pest or weed control at 280 g/ha" measured=65%

* * *

# EXPERIMENTAL_DETAILS: Volatility of compounds measured by thermogravimetric analysis (TGA)
# Format: physicochemical
RECORDED_ENDPOINT: TGA Data (rate of weight loss, volatility) (µg/min)

compound=O=C(COc1cc(Cl)cc(Cl)c1)OCCCOC(=O)COc1ccc(Cl)cc1Cl measured=0.03572
compound=O=C(Cc1ccccc1)NOC(=O)COc1ccc(Cl)cc1Cl measured=1.2
compound=O=C(COc1ccc(Cl)cc1Cl)Nc1ccnc(Cl)c1 measured=0.06009
compound=CN(NC(=O)COc1ccc(Cl)cc1Cl)C(=O)c1ccccc1 measured=0.2
compound=C[N+](C)(C)CCOC(=O)COc1ccc(Cl)cc1Cl.[Cl-] measured=2.4
compound=O=C(COc1ccc(Cl)cc1Cl)OCCOCCOCCOC(=O)COc1ccc(Cl)cc1Cl measured=0.2318
compound=O=C(COc1ccc(Cl)cc1Cl)OCOC(=O)COc1ccc(Cl)cc1Cl measured=0.3
compound="O=C(COc1ccc(Cl)cc1Cl)Oc1cncnc1 [Compound E1]" measured=0.8
compound=Cc1cc(NC(=O)COc2ccc(Cl)cc2Cl)n(C)n1 measured=0.01234
compound=O=C(COc1ccc(Cl)cc1Cl)NOCc1c(F)cccc1Cl measured=0.0287
compound=N/C(=N\OC(=O)COc1ccc(Cl)cc1Cl)c1ccc(/C(N)=N/OC(=O)COc2ccc(Cl)cc2Cl)cc1 measured=0.1
compound=O=C(COc1ccc(Cl)cc1Cl)n1ncc2ccccc21 measured=0.03
compound=COc1ncc(OC(=O)COc2ccc(Cl)cc2Cl)cn1 measured=0.04464
compound=O=C(COc1ccc(Cl)cc1Cl)O/N=C/c1ccc(/C=N/OC(=O)COc2ccc(Cl)cc2Cl)cc1 measured=0.8
compound=O=C(COc1ccc(Cl)cc1Cl)OCOC(=O)c1ccccc1 measured=1.5
compound=O=C(COc1ccc(Cl)cc1Cl)OCCOC(=O)COc1ccc(Cl)cc1Cl measured=0.1482
compound="O=C(COc1ccc(Cl)cc1Cl)Nc1ccncc1 [Compound D1]" measured=0.05
compound=CC(=O)/C(C)=N/OC(=O)COc1ccc(Cl)cc1Cl measured=1
compound=CC(C)ONC(=O)COc1ccc(Cl)cc1Cl measured=0.6973
